- system tested: T1, human CD3ed (human, UniProt P07766 23-126; P04234 22-105, limits assumed)
- T1 construct: The construct injected as 'human CD3ed' in the Biacore assay is not defined; also called human CD3 epsilon/delta heterodimer
- T1 sequence (P07766 23-126 limits assumed, chain 1 of 2): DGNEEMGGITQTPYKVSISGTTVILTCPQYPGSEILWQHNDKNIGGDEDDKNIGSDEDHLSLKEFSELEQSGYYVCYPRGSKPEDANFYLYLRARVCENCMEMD
- T1 sequence (P04234 22-105 limits assumed, chain 2 of 2): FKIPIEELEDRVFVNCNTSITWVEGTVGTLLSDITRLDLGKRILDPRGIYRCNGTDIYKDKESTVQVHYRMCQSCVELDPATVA
- experimental protocol: SPR Biacore T200, IgG captured on protein A, antigen as analyte, 25 C;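 note: antigens flowed over a CM3 chip for 120 s association, KD derived from ka and kd, running buffer (ACES, NaCl, Tween20, pH 7.4) served as blank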
Would you kindly list koff for each of these binders?
Give just the numeric value; s⁻¹ need not be written.

Req: Give the measured koff of dBBDu_183 / dBBDu_L072 (antibody, human IgG1, V domains shown, Tested as IgG (human IgG1 constant region, kappa light chain); also called dBBDu183/L072; H183L072) VH: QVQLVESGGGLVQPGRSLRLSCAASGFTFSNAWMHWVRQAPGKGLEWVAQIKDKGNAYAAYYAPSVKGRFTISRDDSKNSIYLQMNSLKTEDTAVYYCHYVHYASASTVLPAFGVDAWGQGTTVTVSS VL: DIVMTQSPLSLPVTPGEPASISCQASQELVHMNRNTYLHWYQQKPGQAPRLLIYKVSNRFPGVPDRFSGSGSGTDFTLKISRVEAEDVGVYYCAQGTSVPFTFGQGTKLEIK .
Resp: 0.00785

Req: Give the measured koff of dBBDu_186 / dBBDu_L108 (antibody, human IgG1, V domains shown, Tested as IgG (human IgG1 constant region, kappa light chain); also called dBBDu186/L108) VH: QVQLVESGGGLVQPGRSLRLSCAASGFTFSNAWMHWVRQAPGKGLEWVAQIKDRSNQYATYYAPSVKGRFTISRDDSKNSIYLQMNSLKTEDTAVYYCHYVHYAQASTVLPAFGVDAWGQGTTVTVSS VL: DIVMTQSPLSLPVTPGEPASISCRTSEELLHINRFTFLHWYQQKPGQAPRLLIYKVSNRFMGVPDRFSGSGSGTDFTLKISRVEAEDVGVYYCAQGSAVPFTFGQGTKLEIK .
Resp: 0.0408

Req: Give the measured koff of dBBDu_183 / dBBDu_L063 (antibody, V domains shown, Tested as IgG (Fab genes converted into IgG format, human IgG1 constant region, kappa light chain); also called dBBDu183/L063; dBBDu_183/L063) VH: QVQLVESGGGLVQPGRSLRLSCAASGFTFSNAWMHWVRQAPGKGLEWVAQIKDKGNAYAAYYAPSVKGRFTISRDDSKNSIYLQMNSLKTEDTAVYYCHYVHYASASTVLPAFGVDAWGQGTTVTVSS VL: DIVMTQSPLSLPVTPGEPASISCRSSQELVHTNRHTYLHWYQQKPGQAPRLLIYKVSNRFPGVPDRFSGSGSGTDFTLKISRVEAEDVGVYYCAQGTQVPFTFGQGTKLEIK .
Resp: 0.0157
